Biological target: BRK (Homo sapiens, UniProt Q13882)
Sequence (Q13882 whole entry): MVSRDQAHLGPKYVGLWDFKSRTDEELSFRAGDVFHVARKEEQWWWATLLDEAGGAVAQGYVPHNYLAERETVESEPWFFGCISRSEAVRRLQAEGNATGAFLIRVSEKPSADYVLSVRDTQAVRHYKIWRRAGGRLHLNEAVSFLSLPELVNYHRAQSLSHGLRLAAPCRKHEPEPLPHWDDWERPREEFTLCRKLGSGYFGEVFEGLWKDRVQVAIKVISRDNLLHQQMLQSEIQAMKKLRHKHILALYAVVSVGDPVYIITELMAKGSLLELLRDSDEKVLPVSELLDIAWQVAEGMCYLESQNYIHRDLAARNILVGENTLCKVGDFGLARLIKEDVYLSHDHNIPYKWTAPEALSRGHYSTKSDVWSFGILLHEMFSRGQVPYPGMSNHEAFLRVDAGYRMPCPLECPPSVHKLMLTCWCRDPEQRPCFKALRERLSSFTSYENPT
pIC50: −log10 of the molar value.
PARAMETER: pIC50

[[record]]
structure_smiles = "COc1ccc(F)cc1C(=O)NCc1ccc(-c2nn([C@@H](C)C(F)(F)F)c(N)c2C(N)=O)cc1"
study_target = "BRK (Homo sapiens, UniProt Q13882)"
measured = 7.27


----------
Test: Dog pharmacokinetics, crystalline compound in suspension (Example 15 Part A)
Format: in vivo, beagle dogs
Settings: both sexes, beagle, dog, plasma, po, 30 mg/kg, beagle dogs, fed, single PO 30 mg/kg, suspension in 0.5% HPMC
Experimental: Crystalline compound of Formula I is prepared as a suspension in 0.5% hydroxypropyl methylcellulose (IPMC) at 6 mg/mL for administration of 30 mg/kg; no correction factor is used for dose formulation. […] Blood samples are collected via the jugular vein following PO doses at 0 (pre-dose), 0.5, 1, 2, 4, 8 24 and 48 hours into EDTAblood collection tubes. […] Concentrations of the compound of Formula I in dog plasma are determined by LC-MS/MS following protein precipitation with acetonitrile. […]
PARAMETER: AUC(0-t) (ng·h/mL)

[[record]]
structure_smiles = "COc1ccc(F)cc1C(=O)NCc1ccc(-c2nn([C@@H](C)C(F)(F)F)c(N)c2C(N)=O)cc1"
parameter = "AUC(0-t)"
unit_of_measure = "ng·h/mL"
measured = 47800

